Origin of values: patent US4004008A

Test system: intestinal transit of the charcoal
method.notes: Vegetable carbon (charcoal) intestinal transit test in vivo
Parameters: species or system rat
protocol.conditions: Rattus norvegicus, iv, 2 h, i.v., rat, charcoal test, 2 hours; read-out: Antisp. activity in transit test: ED50
Kindly state ED50 for each of the entries shown.
Entry format: amount then unit.

ED50 recorded for this compound, CCCCNC(=O)C(Cc1ccc(OCCN(CC)CC)cc1)NC(=O)c1ccccc1 (racemic) , is 34.3 mg/kg

Entry CCCCNC(=O)C(Cc1ccc(OCCN2CCCC2)cc1)NC(=O)c1ccccc1 (racemic) — recorded ED50 = 10.7 mg/kg

Please fill in: ED50 reported for CCCCCCNC(=O)C(Cc1ccc(OCCN2CCCC2)cc1)NC(=O)c1ccccc1 (racemic) = 14.8 mg/kg

Sample COc1ccc(Cc2nccc3cc(OC)c(OC)cc23)cc1OC [Papaverine, papaverine, reference compound] ; ED50 observed: 22.5 mg/kg

ED50 reading for CCCN(CCC)C(=O)C(Cc1ccc(OCCN(CC)CC)cc1)NC(=O)c1ccc(C(F)(F)F)cc1 (racemic) : 25.6 mg/kg

Entry CCCCNC(=O)C(Cc1ccc(OCCN2CCN(C)CC2)cc1)NC(=O)c1ccc(Cl)cc1 (racemic) , ED50 reported as 30.2 mg/kg

// CCN(CC)CCOc1ccc(CC(NC(=O)c2ccccc2)C(=O)N2CCCC2)cc1 (racemic) : ED50 value = 53.2 mg/kg

Please fill in: ED50 reported for CN(C)CCOc1ccc(CC(NC(=O)c2ccccc2)C(=O)N2CCOCC2)cc1 (racemic) = 59.8 mg/kg

Please fill in: ED50 reported for CCCN(CCC)CCOc1ccc(CC(NC(=O)c2ccccc2)C(=O)N(CCC)CCC)cc1 (racemic) = 16.2 mg/kg

Looking up CCCN(CCC)C(=O)C(Cc1ccc(OCCCN2CCN(Cc3ccccc3)CC2)cc1)NC(=O)c1ccccc1 (racemic) , I found its ED50 recorded as 67.8 mg/kg

The recorded ED50 for CCCN(CCC)C(=O)C(Cc1ccc(OCCN(C)C)cc1)NC(=O)OCc1ccccc1 (stereo not shown) is 30.5 mg/kg

GET /value?item= CCCCNC(=O)C(Cc1ccc(OCCN2CCCC2)cc1)NC(=O)c1ccc(Cl)cc1 (racemic) &field=ED50 returns 21 mg/kg

The compound CCCN(CCC)C(=O)C(Cc1ccc(OCCCCN(CC)CC)cc1)NC(=O)c1ccccc1 (racemic) showed ED50 equal to 15.2 mg/kg

Kindly note the recorded ED50 for CCCN(CCC)C(=O)C(Cc1ccc(OCCCN2CCN(C)CC2)cc1)NC(=O)c1ccc(Cl)cc1 (racemic) , which is 12.2 mg/kg

Sure, the documented ED50 for CCCNC(=O)C(Cc1ccc(OCCN2CCCC2)cc1)NC(=O)c1ccccc1 (racemic) is 15.6 mg/kg

CCN(CC)CCOc1ccc(CC(NC(=O)c2ccccc2)C(=O)N(CC)CC)cc1 (racemic) has a reported ED50 of 33.4 mg/kg

----------
System: intestinal transit of the charcoal
method.notes: Vegetable carbon (charcoal) intestinal transit test in vivo
Design: species or system rat
protocol.conditions: Rattus norvegicus, iv, 2 h, i.v., rat, charcoal test, 2 hours; read-out: Antisp. activity in transit test: ED50
We label by threshold. Values of ED50 strictly beneath 30 mg/kg are satisfied. Values of 30 mg/kg and up are not satisfied.

Is ED50 of CCCN(CCC)C(=O)C(Cc1ccc(OCCN(CC)CC)cc1)NC(=O)c1ccc(Br)cc1 (racemic) strictly below 30 mg/kg?
not satisfied

is_below(ED50, 30 mg/kg) for CCN(CC)C(=O)C(Cc1ccc(OCCN2CCN(C)CC2)cc1)NC(=O)c1ccccc1 (racemic) ?
not satisfied

Does the reported ED50 of CCCN(CCC)C(=O)C(Cc1ccc(OCCN(CC)CC)cc1)NC(=O)c1ccccc1 (stereo not shown) [CR 804] stay below 30 mg/kg?
satisfied

# TODO verify ED50 < 30 mg/kg strictly for this compound: CCCN(CCC)C(=O)C(Cc1ccc(OCCN2CCN(C)CC2)cc1)NC(=O)c1ccc(Cl)cc1 (racemic)
satisfied

Please state whether ED50 is below 30 mg/kg for CCCCNC(=O)C(Cc1ccc(OCCCN2CCN(C)CC2)cc1)NC(=O)c1ccc(Cl)cc1 (racemic)
not satisfied

Consider the compound CCCCNC(=O)C(Cc1ccc(OCCCN2CCN(C)CC2)cc1)NC(=O)c1ccccc1 (racemic) . Is its ED50 strictly less than 30 mg/kg?
not satisfied

Is 30 mg/kg strictly greater than the compound's reported ED50? compound: CCCN(CCC)C(=O)C(Cc1ccc(OCCN2CCCC2)cc1)NC(=O)c1ccccc1 (racemic)
satisfied

Just wondering, is ED50 of CCCN(CCC)C(=O)C(Cc1ccc(OC(C)C(C)CN(CC)CC)cc1)NC(=O)c1ccccc1 (racemic) below 30 mg/kg?
satisfied

# check: ED50 < 30 mg/kg for CCCN(CCC)C(=O)C(Cc1ccc(OCCN(C)C)cc1)NC(=O)OCc1ccc([N+](=O)[O-])cc1 (stereo not shown)
not satisfied

Item CCCN(CCC)C(=O)C(Cc1ccc(OCCN(CC)CC)cc1)NC(=O)c1ccc(Cl)cc1 (racemic) [CR 716] : ED50 beneath 30 mg/kg, strictly?
satisfied

Criterion: ED50 strictly below 30 mg/kg. Is it met by CCCN(CCC)C(=O)C(Cc1ccc(OCCN(CC)CC)cc1)NC(=O)OCc1ccccc1 (stereo not shown) [CR 830] ?
satisfied

Bench note: check whether CCNC(=O)C(Cc1ccc(OCCN(C)C)cc1)NC(=O)OCc1ccccc1 (stereo not shown) shows ED50 below 30 mg/kg
not satisfied

Hello, is ED50 of the following compound strictly smaller than 30 mg/kg? CCN(CC)CCOc1ccc(CC(NC(=O)c2ccccc2)C(=O)N(C)C)cc1 (racemic)
not satisfied

Is the reported ED50 for CCCN(CCC)C(=O)C(Cc1ccc(OCCN2CCCCC2)cc1)NC(=O)c1ccccc1 (racemic) strictly below 30 mg/kg?
not satisfied

# strict comparison: is reported ED50 < 30 mg/kg? input = CCCN(CCC)C(=O)C(Cc1ccc(OCCN(C(C)C)C(C)C)cc1)NC(=O)c1ccc(Cl)cc1 (racemic)
satisfied

Strictly below 30 mg/kg in ED50? CN(C)CCOc1ccc(C[C@H](NC(=O)OCc2ccccc2)C(=O)NCc2ccccc2)cc1
satisfied

----------
method.notes: Acute toxicity (DL50) i.v. in rat
Type: in vivo
protocol.conditions: in vivo, iv, dose causing death in 50% of the animals
Could you please report measured LD50 for the items listed next?
Reply numerically in mg/kg, unit not repeated.

LD50 in this record for CCCN(CCC)C(=O)C(Cc1ccc(OCCN(CC)CC)cc1)NC(=O)OCc1ccccc1 (racemic) [CR 832] : 32.4

What the record says about CCCCNC(=O)C(Cc1ccc(OCCN2CCN(C)CC2)cc1)NC(=O)c1ccc(Cl)cc1 (racemic) [CR 730] : LD50 is 50

What the record says about CN(C)CCOc1ccc(C[C@H](NC(=O)OCc2ccccc2)C(=O)N2CCOCC2)cc1 [CR 606] : LD50 is 128

Query CCCN(CCC)C(=O)C(Cc1ccc(OCCN2CCCC2)cc1)NC(=O)c1ccccc1 (racemic) [CR 625] yields LD50 of 32.6

Recorded result, CCCN(CCC)C(=O)C(Cc1ccc(OCCN(C)C)cc1)NC(=O)OCc1ccc([N+](=O)[O-])cc1 (centres unmarked) [CR 613] , LD50: 100

In plain terms, CN(C)CCOc1ccc(C[C@H](NC(=O)OCc2ccccc2)C(=O)NCc2ccccc2)cc1 [CR 612] has a documented LD50 of 87.7

Note to self: LD50 recorded for CCCCNC(=O)C(Cc1ccc(OCCCN2CCN(C)CC2)cc1)NC(=O)c1ccccc1 (racemic) [CR 702] was 81.4

The value of LD50 measured for the molecule CCCN(CCC)C(=O)C(Cc1ccc(OC(C)C(C)CN(CC)CC)cc1)NC(=O)c1ccccc1 (racemic) [CR 700] turned out to be 19.3

----------
method.notes: Acute toxicity (DL50) i.v. in rat
Type: in vivo
protocol.conditions: in vivo, iv, dose causing death in 50% of the animals
Record form. Attribute: LD50. Fill in for each entry.
Answer in mg/kg, number only, no unit symbol.

Lookup result for CCCN(CCC)CCOc1ccc(CC(NC(=O)c2ccccc2)C(=O)N(CCC)CCC)cc1 (racemic) [CR 823] ; measured LD50: 23

Documented LD50 of CCCCCCNC(=O)C(Cc1ccc(OCCN2CCCC2)cc1)NC(=O)c1ccccc1 (racemic) [CR 825] : 42

Record summary for CCCNC(=O)C(Cc1ccc(OCCN2CCCC2)cc1)NC(=O)c1ccccc1 (racemic) [CR 821] : reported LD50 = 53

The reported value for CCCN(CCC)C(=O)C(Cc1ccc(OCCCN2CCN(CCO)CC2)cc1)NC(=O)c1ccccc1 (racemic) [CR 609] in terms of LD50 is 139

What the record says about CCCN(CCC)C(=O)C(Cc1ccc(OCCN(C(C)C)C(C)C)cc1)NC(=O)c1ccc(Cl)cc1 (racemic) [CR 727] : LD50 is 26.3

Kindly note the recorded LD50 for CCCN(CCC)C(=O)C(Cc1ccc(OCCCCN(CC)CC)cc1)NC(=O)c1ccccc1 (racemic) [CR 829] , which is 20.1

LD50 for CCN(CC)CCOc1ccc(CC(NC(=O)c2ccccc2)C(=O)N(C)C)cc1 (racemic) [CR 738] is 85.3

Lab note: CCCCNC(=O)C(Cc1ccc(OCCN2CCCC2)cc1)NC(=O)c1ccccc1 (racemic) [CR 648] gave LD50 of 35.6

# compound CCCN(CCC)C(=O)C(Cc1ccc(OCCN(CC)CC)cc1)NC(=O)c1ccc(C(F)(F)F)cc1 (racemic) [CR 635] ; its LD50 = 38.7

The compound identified as CCCCNC(=O)C(Cc1ccc(OCCCN2CCN(C)CC2)cc1)NC(=O)c1ccc(Cl)cc1 (racemic) [CR 705] registered its LD50 at 80

Recorded result, CCNC(=O)C(Cc1ccc(OCCN(C(C)C)C(C)C)cc1)NC(=O)c1ccccc1 (racemic) [CR 711] , LD50: 82

Lookup result for CCCN(CCC)C(=O)C(Cc1ccc(OCCN(C(C)C)C(C)C)cc1)NC(=O)c1ccccc1 (racemic) [CR 624] ; measured LD50: 24.4

Form field LD50, entry CCN(CC)CCOc1ccc(CC(NC(=O)c2ccccc2)C(=O)N2CCCC2)cc1 (racemic) [CR 614] : 58.7

Note to self: LD50 recorded for CCN(CC)CCOc1ccc(CC(NC(=O)c2ccccc2)C(N)=O)cc1 (racemic) [CR 740] was 102

Briefly, LD50 measured for CCNC(=O)C(Cc1ccc(OCCCN2CCN(C)CC2)cc1)NC(=O)c1ccc(Cl)cc1 (racemic) [CR 714] : 111

Recorded LD50 (compound CCCN(CCC)C(=O)C(Cc1ccc(OCCN(C)C)cc1)NC(=O)c1ccc([N+](=O)[O-])cc1 (racemic) [CR 620] ): 117

Per the record, CCCN(CCC)C(=O)C(Cc1ccc(OCCN2CCN(C)CC2)cc1)NC(=O)c1ccc(Cl)cc1 (racemic) [CR 733] has LD50 of 43.5

Consider CN(C)CCOc1ccc(CC(NC(=O)c2ccccc2)C(=O)NCc2ccccc2)cc1 (racemic) [CR 616] . Its measured LD50 is 73.6

Reported LD50 for CCCCNC(=O)C(Cc1ccc(OCCN(CC)CC)cc1)NC(=O)c1ccccc1 (racemic) [CR 786] was 38

For record CCCCNC(=O)C(Cc1ccc(OCCN(CC)CC)cc1)NC(=O)c1ccc(Cl)cc1 (racemic) [CR 729] the listed LD50 is 38.6

Lab note: CN(C)CCOc1ccc(CC(NC(=O)c2ccccc2)C(=O)N2CCOCC2)cc1 (racemic) [CR 611] gave LD50 of 108

// CCCN(CCC)C(=O)C(Cc1ccc(OCCN2CCCCC2)cc1)NC(=O)c1ccccc1 (racemic) [CR 630] : LD50 value = 36.1

Quick note, LD50 for CCCN(CCC)C(=O)C(Cc1ccc(OCCN(CC)CC)cc1)NC(=O)c1ccc(Br)cc1 (racemic) [CR 631] landed at 60.2

Record CCCN(CCC)C(=O)C(Cc1ccc(OCCN(C)C)cc1)NC(=O)c1ccccc1 (racemic) [CR 592] . Reported LD50: 58.1

Recorded result, CCNC(=O)C(Cc1ccc(OCCN(C)C)cc1)NC(=O)c1ccccc1 (racemic) [CR 608] , LD50: 162

What the record says about CCCN(CCC)C(=O)C(Cc1ccc(OCCN(CC)CC)cc1)NC(=O)c1ccc(Cl)cc1 (racemic) [CR 716] : LD50 is 56.4
